assayed target: Cholesteryl ester transfer protein (Homo sapiens, UniProt P11597)
Sequence (P11597 whole entry): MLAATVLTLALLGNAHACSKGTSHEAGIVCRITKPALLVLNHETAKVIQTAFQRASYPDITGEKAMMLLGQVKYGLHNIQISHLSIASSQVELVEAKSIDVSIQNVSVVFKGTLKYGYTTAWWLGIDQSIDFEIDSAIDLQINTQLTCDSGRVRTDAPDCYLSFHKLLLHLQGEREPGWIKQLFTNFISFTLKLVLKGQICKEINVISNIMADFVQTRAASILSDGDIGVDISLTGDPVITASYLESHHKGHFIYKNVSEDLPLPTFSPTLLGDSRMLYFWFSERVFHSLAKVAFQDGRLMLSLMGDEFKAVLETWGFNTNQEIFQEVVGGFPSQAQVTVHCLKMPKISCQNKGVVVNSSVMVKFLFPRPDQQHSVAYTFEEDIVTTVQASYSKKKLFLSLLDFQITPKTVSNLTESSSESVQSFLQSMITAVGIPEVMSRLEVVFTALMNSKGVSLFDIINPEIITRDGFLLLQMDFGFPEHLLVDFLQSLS
assay info: Inhibition of human CETP by scintillation proximity assay
pIC50: −log10 of the molar value.
Where pIC50 equals or exceeds 7, the correct label is Criterion met; where it does not, the label is Criterion not met.

Consider the worked cases shown below.
# item smiles, label class
data = [
    ("Cc1cc(C)c2oc(-c3ccc(NC(=O)COc4ccc(OC(F)(F)F)cc4)cc3)nc2c1", "Criterion not met"),
    ("Cc1cc(C)c2oc(-c3ccc(NC(=O)COc4ccc(Cl)c5c4CCC5)cc3)nc2c1", "Criterion met"),
]

Query string: For this compound, is measured pIC50 7 or higher? `Cc1ccccc1OCC(=O)Nc1ccc(-c2nc3cc(C(C)(C)C)ccc3o2)cc1`
Result string: Criterion not met

Query string: For this compound, is measured pIC50 7 or higher? `Cc1ccccc1OCC(=O)Nc1ccc(-c2nc3ccc(N4CCCC4)cc3o2)cc1`
Result string: Criterion not met

====

assayed target: Cholesteryl ester transfer protein (Homo sapiens, UniProt P11597)
assay info: Inhibition of human CETP by scintillation proximity assay
Simple rule here: IC50 less than 400 nM is t, otherwise f.

Consider the worked cases shown below.
# item smiles, label class
measured = [
    ("Cc1cc(C)cc(OCC(=O)Nc2ccc(-c3nc4cc(C)cc(C)c4o3)cc2)c1", "f"),
    ("Cc1ccc(C)c(OCC(=O)Nc2ccc(-c3nc4cc(C)cc(C)c4o3)cc2)c1", "f"),
    ("Cc1cc(C)c2oc(-c3ccc(NC(=O)COc4ccc(Cl)cc4)cc3)nc2c1", "t"),
]

Lab note: next compound to report on.
Query string: In the record for `Cc1cc(C)c2oc(-c3ccc(NC(=O)COc4ccccc4OC(F)(F)F)cc3)nc2c1` , is IC50 less than 400 nM?
Result string: t

====

assayed target: Cholesteryl ester transfer protein (Homo sapiens)
Sequence (P11597 whole entry): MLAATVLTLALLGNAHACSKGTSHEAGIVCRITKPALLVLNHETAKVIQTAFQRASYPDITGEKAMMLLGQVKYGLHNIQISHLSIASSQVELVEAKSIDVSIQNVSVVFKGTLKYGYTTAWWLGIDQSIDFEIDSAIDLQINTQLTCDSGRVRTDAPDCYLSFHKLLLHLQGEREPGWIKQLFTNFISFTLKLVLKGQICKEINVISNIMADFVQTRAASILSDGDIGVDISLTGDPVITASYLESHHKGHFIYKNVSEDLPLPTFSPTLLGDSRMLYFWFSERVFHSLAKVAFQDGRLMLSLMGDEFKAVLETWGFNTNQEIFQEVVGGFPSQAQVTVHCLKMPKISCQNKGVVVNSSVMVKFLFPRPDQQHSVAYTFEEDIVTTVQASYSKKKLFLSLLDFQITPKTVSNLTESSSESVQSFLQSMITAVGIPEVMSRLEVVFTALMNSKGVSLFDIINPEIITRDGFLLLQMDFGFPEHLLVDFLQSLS
assay info: Inhibition of human CETP by scintillation proximity assay
metric name: IC50

Worked cases, answers included:
# item smiles, IC50
measured = [
    ("COc1ccc(OCC(=O)Nc2ccc(-c3nc4cc(C)cc(C)c4o3)cc2)cc1", "> 10 µM"),
    ("Cc1cc(C)c2oc(-c3ccc(NC(=O)COc4cc(Cl)ccc4Cl)cc3)nc2c1", "> 10 µM"),
]

Query string: Answer with the recorded IC50 for the compound listed here: `Cc1ccccc1OCC(=O)Nc1ccc(-c2nc3cc(Cl)cc(Cl)c3o2)cc1`
Result string: 0.088 µM

Query string: Answer with the recorded IC50 for the compound listed here: `COC(=O)c1cccc2nc(-c3ccc(NC(=O)COc4ccccc4C)cc3)oc12`
Result string: 3.5 µM

Query string: Answer with the recorded IC50 for the compound listed here: `Cc1ccccc1OCC(=O)Nc1ccc(-c2nc3cc(Cl)cc([N+](=O)[O-])c3o2)cc1`
Result string: 0.049 µM

Data origin: ChEMBL document CHEMBL1144829
